Please provide measured melting point for the entries that follow.

Guide cases for melting point, answers given:
Query: # return recorded melting point for input CC1(C)C2CC[C@]3(C)[C@H](C(=O)C=C4[C@@H]5C[C@@](C)(C(=O)O)CC[C@]5(C)CC[C@]43C)[C@@]2(C)CC[C@@H]1OC(=O)Nc1ccc(Cl)c(C(F)(F)F)c1 (stereo partly drawn)
Result: 247.8 to 248.5 °C

Query: Specify melting point for CC1(C(=O)O)CCC2(C)CCC3(C)C(=CC(=O)C4C5(C)CCC(OC(=O)Cc6ccc(Cl)cc6)C(C)(C)C5CCC43C)C2C1 (stereo not drawn) and stop.
Result: 312 to 312.7 °C

Query: # return recorded melting point for entry CC1(C)C2CC[C@]3(C)[C@H](C(=O)C=C4[C@@H]5C[C@@](C)(C(=O)O)CC[C@]5(C)CC[C@]43C)[C@@]2(C)CC[C@@H]1OC(=O)Nc1ccc(C(F)(F)F)cc1 (stereo partly drawn)
Result: 242.1 to 242.9 °C

Query: Tell me its melting point given CC1(C)C2CC[C@]3(C)[C@H](C(=O)C=C4[C@@H]5C[C@@](C)(C(=O)O)CC[C@]5(C)CC[C@]43C)[C@@]2(C)CC[C@@H]1OC(=O)Nc1cc(Cl)cc(Cl)c1 (stereo partly drawn) as the entry.
Result: 236.1 to 237.7 °C

Query: Please supply the value of reported melting point for the item CC1(C)C2CC[C@]3(C)[C@H](C(=O)C=C4[C@@H]5C[C@@](C)(C(=O)N6CCOCC6)CC[C@]5(C)CC[C@]43C)[C@@]2(C)CC[C@@H]1OC(=O)Nc1cccc(Cl)c1 (stereo partly drawn)
Result: 291 to 292.5 °C

Here are 2 compounds. What values of melting point were reported for them?
1. CC1(C)C2CC[C@]3(C)[C@H](C(=O)C=C4[C@@H]5C[C@@](C)(C(=O)N6CCOCC6)CC[C@]5(C)CC[C@]43C)[C@@]2(C)CC[C@@H]1OC(=O)Nc1ccc(Cl)c(C(F)(F)F)c1 (stereo partly drawn)
2. CC1(C)C2CC[C@]3(C)[C@H](C(=O)C=C4[C@@H]5C[C@@](C)(C(=O)N6CCOCC6)CC[C@]5(C)CC[C@]43C)[C@@]2(C)CC[C@@H]1OC(=O)Nc1ccc(Cl)c(Cl)c1 (stereo partly drawn)

Result:
["209.5 to 211.1 °C", "292.5 to 293 °C"]

Please look at the items below and tell me melting point for each one, in order.
1. CC1(C)C2CC[C@]3(C)[C@H](C(=O)C=C4[C@@H]5C[C@@](C)(C(=O)O)CC[C@]5(C)CC[C@]43C)[C@@]2(C)CC[C@@H]1OC(=O)CN1CCN(c2ccccn2)CC1 (stereo partly drawn)
2. CC1(C(=O)N2CCOCC2)CCC2(C)CCC3(C)C(=CC(=O)C4C5(C)CCC(OC(=O)Nc6cccc(C(F)(F)F)c6)C(C)(C)C5CCC43C)C2C1 (stereo not drawn)
3. CN1CCN(CC(=O)O[C@H]2CC[C@@]3(C)C(CC[C@]4(C)[C@@H]3C(=O)C=C3[C@@H]5C[C@@](C)(C(=O)O)CC[C@]5(C)CC[C@]34C)C2(C)C)CC1 (stereo partly drawn)
4. CC1(C)C2CC[C@]3(C)[C@H](C(=O)C=C4[C@@H]5C[C@@](C)(C(=O)O)CC[C@]5(C)CC[C@]43C)[C@@]2(C)CC[C@@H]1OC(=O)Nc1ccc(F)cc1 (stereo partly drawn)

Result:
["294 to 295.6 °C", "295 to 296.7 °C", "287.5 to 288.9 °C", "267.9 to 268.9 °C"]

Provide reported melting point for each item, in the same order as listed.
1. CC1(C)C2CC[C@]3(C)[C@H](C(=O)C=C4[C@@H]5C[C@@](C)(C(=O)O)CC[C@]5(C)CC[C@]43C)[C@@]2(C)CC[C@@H]1OC(=O)Nc1ccc(OC(F)(F)F)cc1 (stereo partly drawn)
2. CC1(C)C2CC[C@]3(C)[C@H](C(=O)C=C4[C@@H]5C[C@@](C)(C(=O)O)CC[C@]5(C)CC[C@]43C)[C@@]2(C)CC[C@@H]1OC(=O)Cc1ccc(F)cc1 (stereo partly drawn)
3. CC1(C)C2CC[C@]3(C)[C@H](C(=O)C=C4[C@@H]5C[C@@](C)(C(=O)O)CC[C@]5(C)CC[C@]43C)[C@@]2(C)CC[C@@H]1OC(=O)Nc1ccc(Cl)c(Cl)c1 (stereo partly drawn)
4. CC1(C)C2CC[C@]3(C)[C@H](C(=O)C=C4[C@@H]5C[C@@](C)(C(=O)O)CC[C@]5(C)CC[C@]43C)[C@@]2(C)CC[C@@H]1OC(=O)Nc1cccc(C(F)(F)F)c1 (stereo partly drawn)
5. CC1(C(=O)N2CCOCC2)CCC2(C)CCC3(C)C(=CC(=O)C4C5(C)CCC(OC(=O)Nc6ccc(Cl)cc6)C(C)(C)C5CCC43C)C2C1 (stereo not drawn)
6. CC1(C)C2CC[C@]3(C)[C@H](C(=O)C=C4[C@@H]5C[C@@](C)(C(=O)O)CC[C@]5(C)CC[C@]43C)[C@@]2(C)CC[C@@H]1OC(=O)Nc1cc(C(F)(F)F)cc(C(F)(F)F)c1 (stereo partly drawn)
7. CC1(C)C2CC[C@]3(C)[C@H](C(=O)C=C4[C@@H]5C[C@@](C)(C(=O)O)CC[C@]5(C)CC[C@]43C)[C@@]2(C)CC[C@@H]1OC(=O)CN1CCOCC1 (stereo partly drawn)
8. CC1(C)C2CC[C@]3(C)[C@H](C(=O)C=C4[C@@H]5C[C@@](C)(C(=O)N6CCOCC6)CC[C@]5(C)CC[C@]43C)[C@@]2(C)CC[C@@H]1OC(=O)Nc1cc(C(F)(F)F)cc(C(F)(F)F)c1 (stereo partly drawn)

Result:
1. 256.4 to 258.4 °C
2. 305 to 307.7 °C
3. 260 to 261.4 °C
4. 239.1 to 240.7 °C
5. 298.4 to 299.7 °C
6. 248.8 to 251.7 °C
7. 275.3 to 276.4 °C
8. 313.4 to 314.7 °C

I need melting point for every entry listed below, if you could help.
1. Cc1ccc(NC(=O)O[C@H]2CC[C@@]3(C)C(CC[C@]4(C)[C@@H]3C(=O)C=C3[C@@H]5C[C@@](C)(C(=O)O)CC[C@]5(C)CC[C@]34C)C2(C)C)cc1Cl (stereo partly drawn)
2. CC1(C(=O)N2CCOCC2)CCC2(C)CCC3(C)C(=CC(=O)C4C5(C)CCC(OC(=O)Nc6ccc(F)cc6)C(C)(C)C5CCC43C)C2C1 (stereo not drawn)

Result:
["270.7 to 271.6 °C", "305.1 to 311.4 °C"]

---

Tested on: HT29
Assay: MTT antiproliferative assay, HT29 cells
Format: cell-based
Conditions: Homo sapiens, HT-29; HT29, 2 μg/mL, 48 h, MTT; read-out: Antiproliferative activity (growth inhibition, %)
Method: All the cells were seeded in 96-well plates and incubated with 5% CO2 at 37 °C for 24 h. Next, the compounds and the reference were dissolved into the culture medium. The final concentration of DMSO in the medium was less than 0.5%. […] After an overnight incubation with 5% CO2 at 37 °C, the absorbance was measured at 490/630 nm by the microplate reader. The IC50 was calculated using GraphPad Prism version 6.0 software (San Diego, CA, USA) from the non-linear curve.
parameter: inhibition at 2 µg/mL (%)
One number for each entry, in %.

Sample records with inhibition at 2 µg/mL:
Query: Kindly indicate its recorded inhibition at 2 µg/mL. Item: CN1CCN(CC(=O)O[C@H]2CC[C@@]3(C)C(CC[C@]4(C)[C@@H]3C(=O)C=C3[C@@H]5C[C@@](C)(C(=O)O)CC[C@]5(C)CC[C@]34C)C2(C)C)CC1 (some centres unmarked)
Result: 0

Query: Given CC1(C(=O)N2CCOCC2)CCC2(C)CCC3(C)C(=CC(=O)C4C5(C)CCC(OC(=O)Nc6ccc(Br)cc6)C(C)(C)C5CCC43C)C2C1 (centres unmarked) , respond with its inhibition at 2 µg/mL.
Result: 14.3

Query: Please supply the value of reported inhibition at 2 µg/mL for the item CC1(C)C2CC[C@]3(C)[C@H](C(=O)C=C4[C@@H]5C[C@@](C)(C(=O)N6CCOCC6)CC[C@]5(C)CC[C@]43C)[C@@]2(C)CC[C@@H]1OC(=O)Nc1cccc(Cl)c1 (some centres unmarked)
Result: 7.22

Query: Give the measured inhibition at 2 µg/mL for CC1(C)C2CC[C@]3(C)[C@H](C(=O)C=C4[C@@H]5C[C@@](C)(C(=O)O)CC[C@]5(C)CC[C@]43C)[C@@]2(C)CC[C@@H]1OC(=O)Nc1ccc(C(F)(F)F)cc1 (some centres unmarked)
Result: 19.4

I have 6 molecules here; please give me inhibition at 2 µg/mL for each one.
1. CC1(C)C2CC[C@]3(C)[C@H](C(=O)C=C4[C@@H]5C[C@@](C)(C(=O)N6CCOCC6)CC[C@]5(C)CC[C@]43C)[C@@]2(C)CC[C@@H]1OC(=O)Nc1ccc(Cl)c(Cl)c1 (some centres unmarked)
2. CC1(C)C2CC[C@]3(C)[C@H](C(=O)C=C4[C@@H]5C[C@@](C)(C(=O)O)CC[C@]5(C)CC[C@]43C)[C@@]2(C)CC[C@@H]1OC(=O)Nc1ccc(F)cc1 (some centres unmarked)
3. CC1(C)C2CC[C@]3(C)[C@H](C(=O)C=C4[C@@H]5C[C@@](C)(C(=O)O)CC[C@]5(C)CC[C@]43C)[C@@]2(C)CC[C@@H]1OC(=O)Nc1ccc(Br)cc1 (some centres unmarked)
4. COc1ccc(NC(=O)O[C@H]2CC[C@@]3(C)C(CC[C@]4(C)[C@@H]3C(=O)C=C3[C@@H]5C[C@@](C)(C(=O)N6CCOCC6)CC[C@]5(C)CC[C@]34C)C2(C)C)cc1 (some centres unmarked)
5. CC1(C)C2CC[C@]3(C)[C@H](C(=O)C=C4[C@@H]5C[C@@](C)(C(=O)N6CCOCC6)CC[C@]5(C)CC[C@]43C)[C@@]2(C)CC[C@@H]1OC(=O)Nc1ccc(Cl)c(C(F)(F)F)c1 (some centres unmarked)
6. CC1(C)C2CC[C@]3(C)[C@H](C(=O)C=C4[C@@H]5C[C@@](C)(C(=O)O)CC[C@]5(C)CC[C@]43C)[C@@]2(C)CC[C@@H]1OC(=O)Nc1ccc(Cl)cc1 (some centres unmarked)

Result:
[8.88, 11.8, 18.6, 15.7, 14.4, 13.7]

Query: Give the reported value of inhibition at 2 µg/mL for this record: CC1(C)C2CC[C@]3(C)[C@H](C(=O)C=C4[C@@H]5C[C@@](C)(C(=O)N6CCOCC6)CC[C@]5(C)CC[C@]43C)[C@@]2(C)CC[C@@H]1OC(=O)Nc1cc(C(F)(F)F)cc(C(F)(F)F)c1 (some centres unmarked)
Result: 13

# credit: paper PMC6803848
